# Tested on: PPARg:RXRa 270nM:90nM, anti-RXR (NR concentration 270 nM, RXRa partner concentration 90 nM)
# protocol summary: PBM binding z-score (relative to random genomic background probes); higher = stronger binding; sequences stand for … in GC…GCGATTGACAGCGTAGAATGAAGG
Response key: yes (1) means PBM binding z-score >= 2; no (0) means PBM binding z-score < 2.

biosequence: AGAACGACGGCAATGAGTTGATAGCACGGGTGGC
classification: no (0)
//
biosequence: ATATGTAGGTTACATTCGGGTCATTCAGGCTATG
classification: yes (1)
//
biosequence: AGAATGAGGTTAAGATCAGAGAAACAGAATACAT
classification: yes (1)
//
biosequence: ACTATTGGTTGACTTAGGGCAACCGATACGACGC
classification: no (0)
//
biosequence: CCAGACAGGTGAAAGGTAACTTAGTCTGGTACGC
classification: yes (1)
//
biosequence: AGAACGAGGGCAATGAGTTGATAGCACGGGTGGC
classification: no (0)
//
biosequence: ACAGGCAGGTGAGTGAAGGTAACTCAGCTGGACG
classification: no (0)
//
biosequence: AGTCAAAGTTCACTAGGTAACGTCAGATTCAGCT
classification: yes (1)
//
biosequence: TAACCTAGGTCATGGGCCAGTATACCACGCGAAC
classification: yes (1)
//
biosequence: AGAATGAGGTTAGACGTAGATCAGGGAAGAAAGT
classification: no (0)
//
biosequence: CCGAGTAGGTTATGGGACATTCAGGCAACGGTGA
classification: yes (1)
//
biosequence: AGAATGAGGTTATTCGTAGATCAGGGAAGAAAGT
classification: no (0)
//
biosequence: TCTTGTAGATCAACAGGAGGGTAAGAAAGATCGA
classification: no (0)
//
biosequence: CTCGGAAGGTCGGTTGAGGTGAGTATACGGATAA
classification: no (0)
//
biosequence: ACTAGTTGGTCAGCTGAGGTCACACGCAATTCGG
classification: yes (1)

---

# System: LXRb homodimer (NR concentration 270 nM)
# protocol summary: PBM binding z-score (relative to random genomic background probes); higher = stronger binding; sequences stand for … in GC…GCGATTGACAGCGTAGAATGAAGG
Response key: 1 (yes) means PBM binding z-score >= -0.1; 0 (no) means PBM binding z-score < -0.1.

biosequence: ATACCAAGGTGATCGTGAGGTTGTTGATACTAAC
classification: 0 (no)

biosequence: TCTATTAGCTGAAGGGCAACCGACGAGTCCGTTT
classification: 0 (no)

biosequence: GGAACGAGGGCAAGTTGATATCAGAGTTTGATGG
classification: 0 (no)

biosequence: TTACCAAGGTAAGCTGAGGTCGTTGATCCAACTC
classification: 0 (no)

biosequence: CCTACTTGGCCAAAGGTCATTGATTCCAATGCTC
classification: 1 (yes)

biosequence: ATCTCTAGGTAAGACTCAGTTCAGTTAAGAACGC
classification: 1 (yes)

biosequence: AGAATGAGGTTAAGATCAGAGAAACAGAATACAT
classification: 0 (no)

biosequence: CGAACTAGGTCACCGGAAGGTCAAAGTCCGCATG
classification: 1 (yes)

biosequence: GTACCAAGGTGAACAGGTCGTTGATGAGTAGGCG
classification: 0 (no)

biosequence: ACTACAGGGTCACTAGGCCAGAGTAGGTACGAAT
classification: 1 (yes)

biosequence: TGAATGAGGTTATAAGAGCAGGGAACGTTGCAAA
classification: 1 (yes)

biosequence: ACTATTAATTGACTTAGGGCAACCGATACGACGC
classification: 1 (yes)

biosequence: CCTTACGGGTCAAGGTTACAGCACGGGTGGTACG
classification: 0 (no)

---

Below, each of the sequences is paired with its reported PBM binding z-score value.
# Tested on: PPARg:RXRa 30nM:10nM, anti-RXR (NR concentration 30 nM, RXRa partner concentration 10 nM)
# protocol summary: PBM binding z-score (relative to random genomic background probes); higher = stronger binding; sequences stand for … in GC…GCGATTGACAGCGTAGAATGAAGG

biosequence: TCTATTAGTTGAATGGCAACCGACGAGTCCGTTT
PBM binding z-score: 3.81
//
biosequence: CCTTACGGATCACTCCAGGTTATAGCATCGGAGT
PBM binding z-score: -0.194
//
biosequence: GCATACAGGTAATACAAGGTGAAAGTCCGATTGT
PBM binding z-score: 0.676
//
biosequence: ACTATTAGTTGAATTAGGGCAACCGATACGACGC
PBM binding z-score: 0.71
//
biosequence: CAAACTAGGTCACCGGCAGGTCAAAGTCCGCATG
PBM binding z-score: 5.44
//
biosequence: ATCTCTGGGTAAAAGTTCAGTGAATCCCGAGGAT
PBM binding z-score: 6.93
//
biosequence: TCGAGTAGGTTACTAATGGGGCATTCAGCTTTCT
PBM binding z-score: 0.939
//
biosequence: ATCTCTAGGTAAGACTCAGTTAAGTGAAGAACGC
PBM binding z-score: 0.242
//
biosequence: CAGACTAGGTCACGAAAGGTCAAAGTCGAATGAC
PBM binding z-score: 5.88
//
biosequence: CGAACTAGGTCAGAATAGGACAGTGAAGGATGAT
PBM binding z-score: 1.81
//
biosequence: TCATATAGCTAAAAGGTGAAAGTCGGTGTGGTAA
PBM binding z-score: 3.25
//
biosequence: AGTCAAAGTTAAGGACGAGGTAACGTAAAGCACG
PBM binding z-score: 0.301
//
biosequence: CCTCGGAGGACAACACGAGGTCAGAGCTGCCAGA
PBM binding z-score: -0.655
//
biosequence: TCATCTAGGTAAACAGGTGAAAGTCCGTAAGTTA
PBM binding z-score: 3.92
//
biosequence: CCTAGGAGGCCAGGGTCACTCAAGCATTTCGCTT
PBM binding z-score: -0.259
//
biosequence: CAGCCTAGGTCAGAGCCAGTATAGGAGGAACGTT
PBM binding z-score: -0.211
//
biosequence: CTCGAAAGGTCGTGCTCAGGTGAGTATCCCAAAC
PBM binding z-score: 0.803
//
biosequence: GCTGCTAGGTCAACTGATGGGCAGCTAAAGCTCG
PBM binding z-score: 0.29
//
biosequence: CCGACTGGGGCAGAAAGGTGACCATACCATCCGG
PBM binding z-score: -0.273
//
biosequence: ACGAGCAGGCCAAGTTTGGGTCACTCAAACAAAG
PBM binding z-score: -0.543
//
biosequence: TCAGACAGGTGAAGGTAAGTCAGGTACGCAGTCG
PBM binding z-score: 4.06
//
biosequence: ACTTACGGGTCAAAGAGGTTATAGCACGCGTATA
PBM binding z-score: 2.31
//
biosequence: CCTACTGGGCCACGAAAGATCATTGATTCAGTGA
PBM binding z-score: 0.112
//
biosequence: ATCTCTAGGTAAAACTCAGTTCAGTGAAGAACGC
PBM binding z-score: 0.403
//
biosequence: TCTGCTAGGTCAGTTGGTCAACTAACGAGCTGCC
PBM binding z-score: 1.02
//
biosequence: TGAATGAGGTTAGAGATCAGGGAACGTGGCGTCG
PBM binding z-score: 2.73
//
biosequence: TCTATTAGTTGAAGGGCAACCGGCGAGTCCGTTT
PBM binding z-score: 3.53
//
biosequence: ATACCAAGGTGATCGTGAGGTCGATGATACTAAC
PBM binding z-score: 0.169
//
biosequence: GGAACGCGGGCATTCGAGTTGATAGCATGGCGAT
PBM binding z-score: -0.908
//
biosequence: CCTGCTAGGTCAATGGTCAGCTAGAGCAGCTCGC
PBM binding z-score: 2.14
//
biosequence: TATACAGAGTCAAAGGCCAGAGTACGAATGTCGA
PBM binding z-score: 1.53
//
biosequence: TGTGCTAGGTCAGTTGGTCAGCTAACGAGCTGCC
PBM binding z-score: -0.306
//
biosequence: CGTCCTAGGTCAGAGAGGTCAGTGAATGCCGAGT
PBM binding z-score: 0.277
//
biosequence: GCTGCTAGGTCAACTGATGGTTAGCTAAAGCTCG
PBM binding z-score: 0.818
//
biosequence: ACAGACAGGTGAGTGAAGGTAACTGAGCTGGACG
PBM binding z-score: -0.146
//
biosequence: ATCTCTAGCTAAGACTCAGTTCAGTGAAGAACGC
PBM binding z-score: -0.13
//
biosequence: CCTATTAGTTGCCCATAAGGGCAACCGAAGCTCG
PBM binding z-score: -0.263
//
biosequence: CAAACTAGATCACAGAGGTCAAAGTCCGTGCGTA
PBM binding z-score: 2.01
//
biosequence: TCTCGGAGGCCACGAAGGTCAGAGCTTTCCAGAG
PBM binding z-score: 1.63
//
biosequence: ATCGAAAGGTCGACGGTGAGTATACCCACCCGAA
PBM binding z-score: 1.17
//
biosequence: CCTATTAGTTGACCATAAGGCCAACCGAAGCTCG
PBM binding z-score: 0.0484
//
biosequence: TATACAGGGTCCAAGGCCAGAGTACGAATGTCGA
PBM binding z-score: 0.686
//
biosequence: CTACCAAGGCGAACAAGGTCGTTGATTACTATTC
PBM binding z-score: -0.118
//
biosequence: TCATATAGGTAAAGAGGTGAAAGTCCGTAAGTTA
PBM binding z-score: 4.83
